FYI, the data here is from patent US10745435B2.

# experiment.description: Log P (pH 11.0) assay, miniaturized 1-octanol/buffer shake flask method
# Format: physicochemical
# study.conditions: pH 11.0, room temperature
Respond with Met for logP values of 1 and above, Not met for values below.

>  <molecule>
Cc1cn([C@H]2C[C@H](O)[C@@H](COP(=O)(N[C@@H](C)C(=O)OC(C)C)Oc3cccc4ccccc34)O2)c(=O)[nH]c1=O (stereo partly drawn)

>  <category.label>
Met

$$$$
>  <molecule>
COc1nc(N)nc2c1ncn2[C@H]1C[C@H](O)[C@@H](COP(=O)(N[C@@H](C)C(=O)OC(C)C)Oc2cccc3ccccc23)O1 (stereo partly drawn)

>  <category.label>
Met

$$$$
>  <molecule>
CC(C)OC(=O)[C@H](C)NP(=O)(OC[C@H]1O[C@@H](n2ccc(N)nc2=O)C[C@@H]1O)Oc1cccc2ccccc12 (stereo partly drawn)

>  <category.label>
Met

$$$$
>  <molecule>
CC(C)OC(=O)[C@H](C)NP(=O)(OC[C@H]1O[C@@H](n2cnc3c(=O)[nH]c(N)nc32)C[C@@H]1O)Oc1ccccc1 (stereo partly drawn)

>  <category.label>
Not met

$$$$
>  <molecule>
Cc1cn([C@H]2C[C@H](O)[C@@H](COP(=O)(N[C@@H](C)C(=O)OC(C)C)Oc3ccccc3)O2)c(=O)[nH]c1=O (stereo partly drawn)

>  <category.label>
Not met

$$$$

Hello, I need to know if CC(C)OC(=O)[C@H](C)NP(=O)(OC[C@H]1O[C@@H](n2ccc(N)nc2=O)C[C@@H]1O)Oc1ccccc1 (stereo partly drawn) has measured logP not below 1. Thanks!
Met

* * *

In this section, each of the compounds is paired with its reported logP.
# experiment.description: Log P (pH 11.0) assay, miniaturized 1-octanol/buffer shake flask method
# Format: physicochemical
# study.conditions: pH 11.0, room temperature
# Protocol: The Log P assay was performed according to a miniaturized 1-octanol/buffer shake flask method followed by LC/MS/MS analysis. Test compounds were prepared as 10 mM solutions dissolved in 100% DMSO. Test compounds (10 mM in DMSO; 2 μL/well) and QC samples (10 mM in DMSO; 2 μL/well) were transferred in duplicate from storage tubes to the 96-well polypropylene cluster tubes. […] Data Analysis—The Log P value for each compound was calculated using the following equation: […]

Record excerpt, results attached:
>  <compound>
CC(C)OC(=O)[C@H](C)NP(=O)(OC[C@H]1O[C@@H](n2ccc(N)nc2=O)C[C@@H]1O)Oc1ccc(F)cc1 (stereo partly drawn)

>  <result>
1.5

$$$$
>  <compound>
CC(C)OC(=O)[C@H](C)NP(=O)(OC[C@H]1O[C@@H](n2cnc3c(=O)[nH]c(N)nc32)C[C@@H]1O)Oc1ccc(F)cc1 (stereo partly drawn)

>  <result>
0.24

$$$$
>  <compound>
C[C@H](NP(=O)(OC[C@H]1O[C@@H](n2cnc3c(=O)[nH]c(N)nc32)C[C@@H]1O)Oc1cccc2ccccc12)C(=O)OCC(C)(C)C (stereo partly drawn)

>  <result>
1.7

$$$$
>  <compound>
Cc1cn([C@H]2C[C@H](O)[C@@H](COP(=O)(N[C@@H](C)C(=O)OC(C)C)Oc3ccc(F)cc3)O2)c(=O)[nH]c1=O (stereo partly drawn)

>  <result>
0.97

$$$$
>  <compound>
C[C@H](NP(=O)(OC[C@H]1O[C@@H](n2cnc3c(=O)[nH]c(N)nc32)C[C@@H]1O)Oc1cccc2ccccc12)C(=O)OCc1ccccc1 (stereo partly drawn)

>  <result>
3.4

$$$$

Could you now look at the following compound, please?
Entry CC(C)OC(=O)[C@H](C)NP(=O)(OC[C@H]1O[C@@H](n2cnc3c(=O)[nH]c(N)nc32)C[C@@H]1O)Oc1cccc2ccccc12 (stereo partly drawn) needs its logP filled in; supply it.
1.1
